Data origin: paper PMC5011342

Measured 0.1 µM (% DMSO), listed per entry.
# System: expanded OPCs
# experimentDescription: cells
# assaySetup: alamarBlue viability of expanded OPCs, compound at 0.1 µM, relative to DMSO control
# Description: Having established a consistent assay for measuring OL differentiation in vitro, the next step was to utilize this assay to assess the ability of a wide array of compounds to promote OL differentiation. Prior to library screening, we first established the maximum non-toxic dose of each compound in the library. […] Three days later, we assessed viability of the treated cells by measuring AlamarBlue fluorescence, a measure of cell viability (see “Methods” section). […]
Field: numeric (% DMSO). Do not append units.

Use the examples below as a reference point.
[[record]]
compound = "CN(C)CCCC1(c2ccc(F)cc2)OCc2cc(C#N)ccc21 (centres unmarked) [Nitalapram, reference compound]"
quantitativereadout = 107.3

[[record]]
compound = "C[C@@](Cc1ccc(O)c(O)c1)(NN)C(=O)O [Carbidopa]"
quantitativereadout = 108.9

[[record]]
compound = "CCCNC(C)C(=O)Nc1ccccc1C (centres unmarked) [Prilocaine]"
quantitativereadout = 89.7

[[record]]
compound = "CCC1(c2ccc(N)cc2)CCC(=O)NC1=O (centres unmarked) [Aminoglutethimide]"
quantitativereadout = 94.4

[[record]]
compound = "COc1cc(Cc2cnc(N)nc2N)cc(OC)c1OC [Trimethoprim]"
quantitativereadout = 93.8

[[record]]
compound = "COc1c(N2CCNC(C)C2)c(F)cc2c(=O)c(C(=O)O)cn(C3CC3)c12 (centres unmarked) [Gatifloxacin]"
quantitativereadout = 99.4


Ask: Reported 0.1 µM (% DMSO) for CC(=O)OCC(=O)[C@@]1(O)CC[C@H]2[C@@H]3CCC4=CC(=O)CC[C@]4(C)[C@H]3C(=O)C[C@@]21C [Cortisone acetate] : what is it?
Result: 89.9

Ask: Reported 0.1 µM (% DMSO) for N[C@@H](Cc1cc(I)c(Oc2ccc(O)c(I)c2)c(I)c1)C(=O)O [Triiodothyronine] : what is it?
Result: 237.5

###

# Tested on: expanded OPCs
# experimentDescription: cells
# assaySetup: Rattus norvegicus, 72 h, read-out: 10 µM (% DMSO), alamarBlue viability, NCC library compound at 10 µM, sheet "All Tox data"
Our labelling divides records by viability at 10 µM into ranges: bin 1: < 60%; bin 2: ≥ 60% and < 90%; bin 3: ≥ 90%

[[record]]
compound = "CN(C)CCOC(c1ccc(Cl)cc1)c1ccccn1 (centres unmarked)"
grouplabel = "bin 1"

[[record]]
compound = "C[C@H](CCC(=O)O)[C@H]1CC[C@H]2[C@@H]3C(=O)C[C@@H]4CC(=O)CC[C@]4(C)[C@H]3CC(=O)[C@]12C [Dehydrocholic Acid]"
grouplabel = "bin 3"


Ask: Which category does the recorded viability at 10 µM put O=C1CC2(CCCC2)CC(=O)N1CCNCC1COc2ccccc2O1 (centres unmarked) in?
Result: bin 3

Ask: Which category does the recorded viability at 10 µM put "CC(C)(C#N)c1cc(Cn2cncn2)cc(C(C)(C)C#N)c1" in?
Result: bin 2

Ask: Which category does the recorded viability at 10 µM put COc1cc(C)nc(-n2nc(C)cc2OC)n1 [Epirizole] in?
Result: bin 3

Ask: Which category does the recorded viability at 10 µM put CC(=O)O[C@H]1C[C@@H]2CC[C@@H]3[C@H](CC[C@@]4(C)[C@H]3C[C@H]([N+]3(C)CCCCC3)[C@@H]4OC(C)=O)[C@@]2(C)C[C@@H]1N1CCCCC1 [Vecuronium Bromide] in?
Result: bin 2
